compounds and their reported Cytotoxicity (%)
# System: HCT-8 host cells (Hs18S)
# Measurement context: primary screening at 10 uM, from Hs18S ΔCT
Attribute measured: Cytotoxicity (%)

Compound: C=C[C@@](C)(O)CC[C@H]1C(=C)C[C@H](O)[C@H]2C(C)(C)CCC[C@]12C
Attribute measured: Cytotoxicity (%)
Units: %
Endpoint result: 2.2
//
Compound: O=c1cc(-c2ccccc2)oc2cccc(O)c12
Attribute measured: Cytotoxicity (%)
Units: %
Endpoint result: 3.1
//
Compound: COC1=C(OC)C(=O)C(C/C=C(\C)CC/C=C(\C)CC/C=C(\C)CC/C=C(\C)CC/C=C(\C)CC/C=C(\C)CC/C=C(\C)CC/C=C(\C)CC/C=C(\C)CCC=C(C)C)=C(C)C1=O
Attribute measured: Cytotoxicity (%)
Units: %
Endpoint result: 21.3
//
Compound: COc1ccc(-c2coc3c4c(c(CC=C(C)C)c(O)c3c2=O)OC(C)(C)C=C4)cc1
Attribute measured: Cytotoxicity (%)
Units: %
Endpoint result: -2.7
//
Compound: COc1ccc(-c2cc(=O)c3c(O)cc(OC)c(OC)c3o2)c(OC)c1 [5-HYDROXY-2',4',7,8-TETRAMETHOXYFLAVONE]
Attribute measured: Cytotoxicity (%)
Units: %
Endpoint result: 13.2
//
Compound: COc1cc2c3cc1Oc1cc(ccc1O)C[C@@H]1c4c(cc(OC)c(O)c4Oc4ccc(cc4)C[C@@H]3N(C)CC2)CC[N+]1(C)C.Cl.O.O.O.O.O.[Cl-] [TUBOCURARINE CHLORIDE]
Attribute measured: Cytotoxicity (%)
Units: %
Endpoint result: -22.2

###

# Experimental details: in vitro
# Measurement context: human
Counter-ions that a name gives are not always drawn.

Molecule: C[C@H](CCC(=O)O)[C@H]1CC[C@H]2[C@@H]3[C@H](O)C[C@@H]4C[C@H](O)CC[C@]4(C)[C@H]3CC[C@]12C
cytotoxicity at 41 h, 10 µM: 17.2%
--
Molecule: CC/C=C\C/C=C\C/C=C\C/C=C\C/C=C\C/C=C\CCC(=O)O
cytotoxicity at 41 h, 10 µM: -4%
--
Molecule: NCC(O)c1ccc(O)cc1 (stereo not shown) [OCTOPAMINE HYDROCHLORIDE]
cytotoxicity at 41 h, 10 µM: -15.8%
--
Molecule: c1coc(CNc2ncnc3[nH]cnc23)c1
cytotoxicity at 41 h, 10 µM: 31%
--
Molecule: COc1c2c(cc3occ(-c4ccc5c(c4)OCO5)c(=O)c13)OC(C)(C)C=C2
cytotoxicity at 41 h, 10 µM: -5.4%
--
Molecule: Cc1cc2c(C(C)C)c(O)c(O)c(C=O)c2c(O)c1-c1c(C)cc2c(C(C)C)c(O)c(O)c(C=O)c2c1O
cytotoxicity at 41 h, 10 µM: 26.6%
--
Molecule: O=C(/C=C/c1ccc(O)c(O)c1)O[C@H](Cc1ccc(O)c(O)c1)C(=O)O
cytotoxicity at 41 h, 10 µM: -3.1%
--
Molecule: CC(C)(c1ccc(O)cc1)c1ccc(O)cc1
cytotoxicity at 41 h, 10 µM: -15%
--
Molecule: O=c1cc(-c2ccccc2)oc2ccc(O)cc12 [6-HYDROXYFLAVONE]
cytotoxicity at 41 h, 10 µM: 5.6%
--
Molecule: COc1ccc2c(=O)c(OC)c(-c3ccccc3)oc2c1
cytotoxicity at 41 h, 10 µM: -15.4%
--
Molecule: O=c1oc2c(O)c(O)cc3c(=O)oc4c(O)c(O)cc1c4c23
cytotoxicity at 41 h, 10 µM: -3.6%
--
Molecule: COc1c(OC)c2occc2c2oc(=O)ccc12
cytotoxicity at 41 h, 10 µM: 13.3%
--
Molecule: O=C(O)/C=C/c1ccc(O)c(O)c1
cytotoxicity at 41 h, 10 µM: -26.2%
--
Molecule: CN1C(=O)CC[C@H]1c1cccnc1
cytotoxicity at 41 h, 10 µM: 24.7%
--
Molecule: CC12CCC(CC1)C(C)(C)O2
cytotoxicity at 41 h, 10 µM: -16.4%
--
Molecule: Cc1cc(O)c2c(O)c3c(O)cccc3cc2c1
cytotoxicity at 41 h, 10 µM: 28.2%
--
Molecule: CC(C)(C#N)O[C@@H]1O[C@H](CO)[C@@H](O)[C@H](O)[C@H]1O
cytotoxicity at 41 h, 10 µM: 33.5%
--
Molecule: COc1ccccc1O
cytotoxicity at 41 h, 10 µM: 1.6%
--
Molecule: Nc1ncnc2c1ncn2[C@@H]1O[C@H](COP(=O)(O)O)[C@@H](O)[C@H]1O [ADENOSINE PHOSPHATE]
cytotoxicity at 41 h, 10 µM: -11.8%
--
Molecule: Nc1ncnc2c1ncn2[C@@H]1O[C@H](CO)[C@@H](O)[C@H]1O
cytotoxicity at 41 h, 10 µM: 1.5%
--
Molecule: C=CCN=C=S [ALLYLISOTHIOCYANATE]
cytotoxicity at 41 h, 10 µM: 17.7%
--
Molecule: NC[C@H]1O[C@H](O[C@H]2[C@H](O)[C@@H](O[C@H]3O[C@H](CO)[C@@H](O)[C@H](N)[C@H]3O)[C@H](N)C[C@@H]2N)[C@H](N)[C@@H](O)[C@@H]1O [BEKANAMYCIN SULFATE]
cytotoxicity at 41 h, 10 µM: 8.7%
--
Molecule: CC(C)=CCC[C@@H](C)[C@H]1CC[C@@]2(C)C3=C(CC[C@]12C)[C@@]1(C)CC[C@H](O)C(C)(C)[C@@H]1CC3
cytotoxicity at 41 h, 10 µM: -18.1%
--
Molecule: NCCC(=O)N[C@@H](Cc1cnc[nH]1)C(=O)O
cytotoxicity at 41 h, 10 µM: 5.5%
--
Molecule: CC(C)=CCC1=C(O)C(=O)c2ccccc2C1=O
cytotoxicity at 41 h, 10 µM: -52%
--
Molecule: C[C@]12CCC(=O)C=C1CC[C@@H]1[C@@H]2[C@@H](O)C[C@@]2(C)[C@H]1CC[C@]2(O)C(=O)CO [HYDROCORTISONE]
cytotoxicity at 41 h, 10 µM: -38.1%
--
Molecule: O=c1oc2ccccc2cc1O [3-HYDROXYCOUMARIN]
cytotoxicity at 41 h, 10 µM: -15.7%
--
Molecule: O=C(O)C1CC([C@@H]2CCCCN2)CN2CCCCC12 (stereo partly shown)
cytotoxicity at 41 h, 10 µM: 16.1%
--
Molecule: COc1cc(O)c(C(=O)c2ccccc2)cc1O
cytotoxicity at 41 h, 10 µM: -21%
--
Molecule: COc1ccc2c(C)cc(=O)oc2c1
cytotoxicity at 41 h, 10 µM: 16.6%
--
Molecule: Cc1ccc2c(c1)CC[C@H]1CC(=O)CC[C@]21C
cytotoxicity at 41 h, 10 µM: -2%
--
Molecule: O=C1c2c(O)cccc2C([C@@H]2O[C@H](CO)[C@@H](O)[C@H](O)[C@H]2O)c2cc(CO)cc(O)c21 (stereo partly shown)
cytotoxicity at 41 h, 10 µM: -54.3%
--
Molecule: C=CC(C1=CC(=O)C(OC)=CC1=O)c1ccc(O)cc1 (stereo not shown) [DALBERGIONE, 4-METHOXY-4'-HYDROXY-]
cytotoxicity at 41 h, 10 µM: 6.1%
--
Molecule: CC1=CC(=O)c2c(O)cccc2C1=O
cytotoxicity at 41 h, 10 µM: 58.1%
--
Molecule: COC(=O)c1cc(O)c(=O)c2c(O)c(O)ccc2c1
cytotoxicity at 41 h, 10 µM: 10.5%
--
Molecule: OC[C@@H]1CCCN2CCCC[C@H]12
cytotoxicity at 41 h, 10 µM: 11.8%
--
Molecule: CC(=O)OC1CCC23CC1(C)CCC2C(C)(C)CC3OC(C)=O (stereo not shown) [CLOVANEDIOL DIACETATE]
cytotoxicity at 41 h, 10 µM: 31.9%

###

# Test system: HCT-8 host cells (Hs18S)
# Measurement context: primary screening at 10 uM, from Hs18S ΔCT
molecules and their reported Cytotoxicity (%)
Attribute measured: Cytotoxicity (%)

Molecule: CCNC(=O)CC[C@H](N)C(=O)[O-].[K+]
Units: %
Endpoint result: -36.3
//
Molecule: Cc1occc(=O)c1O
Units: %
Endpoint result: 12.9
//
Molecule: O=c1c(O)c(-c2ccc(O)c(O)c2)oc2c(O[C@@H]3O[C@H](CO)[C@@H](O)[C@H](O)[C@H]3O)c(O)cc(O)c12
Units: %
Endpoint result: -4.8
//
Molecule: COc1cc(O)c(C(C)=O)c(O)c1
Units: %
Endpoint result: 10.4
//
Molecule: Cc1c[nH]c2ccccc12
Units: %
Endpoint result: 18.5
//
Molecule: CC(=O)O[C@@H]1CC2C(C)(C)C(=O)C3OC3[C@]2(C)C2CC[C@@]3(C)[C@H](c4ccoc4)OC(=O)C4OC43[C@@]21C (stereo partly shown)
Units: %
Endpoint result: -37.3
//
Molecule: COc1cc2occ(-c3ccc(OC)c(OC)c3OC)c(=O)c2cc1OC
Units: %
Endpoint result: -30.1
//
Molecule: C[C@H](CCC(=O)O)[C@H]1CC[C@H]2[C@@H]3C[C@H](O)[C@@H]4C[C@H](O)CC[C@]4(C)[C@H]3CC[C@]12C [alpha-HYDROXYDEOXYCHOLIC ACID]
Units: %
Endpoint result: -43.0
//
Molecule: COc1ccc(-c2coc3cc(OC)ccc3c2=O)cc1
Units: %
Endpoint result: 3.0
//
Molecule: C[C@]12C=CC(=O)C=C1CC[C@@H]1[C@@H]2CC[C@]2(C)C(=O)CC[C@@H]12
Units: %
Endpoint result: 0.7
//
Molecule: COc1ccc(-c2cc(=O)c3c(OC)c(OC)c(OC)c(OC)c3o2)cc1
Units: %
Endpoint result: 8.0
//
Molecule: COC(=O)C1=CO[C@@H](C)[C@H]2CN3CC[C@]4(C(=O)Nc5ccccc54)[C@@H]3C[C@H]12
Units: %
Endpoint result: 11.1
//
Molecule: COC(=O)/C(C)=C\C[C@@]12OC(C)(C)[C@@H]3C[C@@H](C=C4C(=O)c5c(OC)c6c(c(CC=C(C)C)c5O[C@]431)O[C@](C)(CCC=C(C)C)C=C6)C2=O [METHYL GAMBOGATE METHYL ETHER]
Units: %
Endpoint result: 22.4
//
Molecule: COc1cc2c(cc1OC)Cc1cc(OC)c(OC)cc1Cc1cc(OC)c(OC)cc1C2
Units: %
Endpoint result: -2.2
//
Molecule: C=C1CCC(C2CC(=O)OC2=O)C(=O)CCC2C1CC2(C)C (stereo not shown)
Units: %
Endpoint result: -6.8
//
Molecule: CC(=O)Oc1ccc2c(C)cc(=O)oc2c1
Units: %
Endpoint result: -4.5
